Taken from ChEMBL document CHEMBL1135297.

This section lists Ki readings for Sodium-dependent dopamine transporter (Rattus norvegicus, UniProt P23977).
PROPERTY_MEASURED: Ki (nM)

                                   molecule  endpoint_result
0  COC(=O)C1C(OC(c2ccc(F)cc2)c2ccc(F)cc2)CC2CCC1N2C (single isomer, unassigned; (+))             12.9
1  COC(=O)C1C(OC(c2ccc(F)cc2)c2ccc(F)cc2)CC2CCC1N2C (racemic)             21.3
2  CN1C2CCC1C(C(=O)OCc1ccccc1)C(OC(c1ccc(F)cc1)c1ccc(F)cc1)C2 (racemic)             90.3
3  CCOC(=O)C1C(OC(c2ccc(F)cc2)c2ccc(F)cc2)CC2CCC1N2C (racemic)             26.2
4  CCOC(=O)C1C(OC(c2ccc(F)cc2)c2ccc(F)cc2)CC2CCC1N2C (single isomer, unassigned; (+))             16.8
5  CC(C)OC(=O)C1C(OC(c2ccc(F)cc2)c2ccc(F)cc2)CC2CCC1N2C (racemic)             49.1
6  CN1C2CCC1C(C(=O)OCc1ccccc1)C(OC(c1ccc(F)cc1)c1ccc(F)cc1)C2 (stereo not drawn)             40.2
7  CC(C)OC(=O)C1C(OC(c2ccc(F)cc2)c2ccc(F)cc2)CC2CCC1N2C (single isomer, unassigned; (+))             23.3

---

log10(Ki) listing for selected molecules.
- TARGET_OR_SYSTEM: Muscarinic acetylcholine receptor M1 (Rattus norvegicus)
- Sequence (P08482 whole entry): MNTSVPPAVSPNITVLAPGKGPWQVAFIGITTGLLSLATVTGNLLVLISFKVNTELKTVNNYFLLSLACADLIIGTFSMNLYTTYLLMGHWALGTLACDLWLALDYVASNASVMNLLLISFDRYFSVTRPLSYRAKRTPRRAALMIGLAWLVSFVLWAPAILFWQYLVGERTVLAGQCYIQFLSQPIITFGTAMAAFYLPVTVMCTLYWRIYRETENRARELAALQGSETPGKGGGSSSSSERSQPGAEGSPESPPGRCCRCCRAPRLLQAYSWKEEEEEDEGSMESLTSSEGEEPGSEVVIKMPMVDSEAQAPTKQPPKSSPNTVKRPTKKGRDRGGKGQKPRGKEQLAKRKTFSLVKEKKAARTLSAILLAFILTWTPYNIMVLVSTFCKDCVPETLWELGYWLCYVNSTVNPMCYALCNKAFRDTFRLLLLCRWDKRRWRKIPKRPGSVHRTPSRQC
PROPERTY_MEASURED: log10(Ki) (log10 of the value in µM)

                                   molecule  endpoint_result
0  CC(C)OC(=O)C1C(OC(c2ccc(F)cc2)c2ccc(F)cc2)CC2CCC1N2C (single isomer, unassigned; (+))             0.43
1  CCOC(=O)C1C(OC(c2ccc(F)cc2)c2ccc(F)cc2)CC2CCC1N2C (racemic)             0.27
2  CN1C2CCC1C(C(=O)OCc1ccccc1)C(OC(c1ccc(F)cc1)c1ccc(F)cc1)C2 (racemic)             0.71
3  COC(=O)C1C(OC(c2ccc(F)cc2)c2ccc(F)cc2)CC2CCC1N2C (single isomer, unassigned; (+))            -0.88
4  CN1C2CCC1C(C(=O)OCc1ccccc1)C(OC(c1ccc(F)cc1)c1ccc(F)cc1)C2 (stereo not drawn)             0.64
5  CC(C)OC(=O)C1C(OC(c2ccc(F)cc2)c2ccc(F)cc2)CC2CCC1N2C (racemic)             0.88
6  COC(=O)C1C(OC(c2ccc(F)cc2)c2ccc(F)cc2)CC2CCC1N2C (racemic)            -0.52
7  CCOC(=O)C1C(OC(c2ccc(F)cc2)c2ccc(F)cc2)CC2CCC1N2C (single isomer, unassigned; (+))             0.28

---

This section lists Ki readings for UniProt Q9WTR4.
Sequence (Q9WTR4 whole entry): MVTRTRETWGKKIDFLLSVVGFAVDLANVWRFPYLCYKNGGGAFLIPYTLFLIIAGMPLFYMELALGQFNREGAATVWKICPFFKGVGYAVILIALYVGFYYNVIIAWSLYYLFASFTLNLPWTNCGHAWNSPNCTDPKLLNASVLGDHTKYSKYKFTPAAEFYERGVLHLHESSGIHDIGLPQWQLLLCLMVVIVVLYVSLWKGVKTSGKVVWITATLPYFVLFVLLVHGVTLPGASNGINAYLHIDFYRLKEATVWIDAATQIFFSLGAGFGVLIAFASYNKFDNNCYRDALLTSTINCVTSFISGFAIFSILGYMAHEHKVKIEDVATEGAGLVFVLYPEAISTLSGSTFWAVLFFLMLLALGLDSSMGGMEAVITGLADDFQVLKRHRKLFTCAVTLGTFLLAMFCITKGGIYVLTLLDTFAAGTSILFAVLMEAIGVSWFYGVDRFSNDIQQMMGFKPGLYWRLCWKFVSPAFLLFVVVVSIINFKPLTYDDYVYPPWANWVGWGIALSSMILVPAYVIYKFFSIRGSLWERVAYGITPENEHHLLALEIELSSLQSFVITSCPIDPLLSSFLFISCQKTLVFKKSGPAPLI
PROPERTY_MEASURED: Ki (µM)

                                   molecule  target_or_system  endpoint_result
0  CN1C2CCC1C(C(=O)OCc1ccccc1)C(OC(c1ccc(F)cc1)c1ccc(F)cc1)C2 (racemic)    UniProt Q9WTR4             4.11
1  CC(C)OC(=O)C1C(OC(c2ccc(F)cc2)c2ccc(F)cc2)CC2CCC1N2C (racemic)    UniProt Q9WTR4             1.99
2  COC(=O)C1C(OC(c2ccc(F)cc2)c2ccc(F)cc2)CC2CCC1N2C (single isomer, unassigned; (+))    UniProt Q9WTR4            0.269
3  CCOC(=O)C1C(OC(c2ccc(F)cc2)c2ccc(F)cc2)CC2CCC1N2C (racemic)    UniProt Q9WTR4             1.02
4  CN1C2CCC1CC(OC(c1ccc(F)cc1)c1ccc(F)cc1)C2 (centres undefined) [DIFLUOROBENZTROPINE]    UniProt Q9WTR4             0.61
5  CN1C2CCC1C(C(=O)OCc1ccccc1)C(OC(c1ccc(F)cc1)c1ccc(F)cc1)C2 (centres undefined)    UniProt Q9WTR4             2.23
6  CC(C)OC(=O)C1C(OC(c2ccc(F)cc2)c2ccc(F)cc2)CC2CCC1N2C (single isomer, unassigned; (+))    UniProt Q9WTR4            0.642
7  COC(=O)C1C(OC(c2ccc(F)cc2)c2ccc(F)cc2)CC2CCC1N2C (racemic)    UniProt Q9WTR4            0.474
8  CCOC(=O)C1C(OC(c2ccc(F)cc2)c2ccc(F)cc2)CC2CCC1N2C (single isomer, unassigned; (+))    UniProt Q9WTR4            0.629

---

pKi listing for selected compounds.
- TARGET_OR_SYSTEM: Sodium-dependent serotonin transporter (Rattus norvegicus)
- Sequence (P31652 whole entry): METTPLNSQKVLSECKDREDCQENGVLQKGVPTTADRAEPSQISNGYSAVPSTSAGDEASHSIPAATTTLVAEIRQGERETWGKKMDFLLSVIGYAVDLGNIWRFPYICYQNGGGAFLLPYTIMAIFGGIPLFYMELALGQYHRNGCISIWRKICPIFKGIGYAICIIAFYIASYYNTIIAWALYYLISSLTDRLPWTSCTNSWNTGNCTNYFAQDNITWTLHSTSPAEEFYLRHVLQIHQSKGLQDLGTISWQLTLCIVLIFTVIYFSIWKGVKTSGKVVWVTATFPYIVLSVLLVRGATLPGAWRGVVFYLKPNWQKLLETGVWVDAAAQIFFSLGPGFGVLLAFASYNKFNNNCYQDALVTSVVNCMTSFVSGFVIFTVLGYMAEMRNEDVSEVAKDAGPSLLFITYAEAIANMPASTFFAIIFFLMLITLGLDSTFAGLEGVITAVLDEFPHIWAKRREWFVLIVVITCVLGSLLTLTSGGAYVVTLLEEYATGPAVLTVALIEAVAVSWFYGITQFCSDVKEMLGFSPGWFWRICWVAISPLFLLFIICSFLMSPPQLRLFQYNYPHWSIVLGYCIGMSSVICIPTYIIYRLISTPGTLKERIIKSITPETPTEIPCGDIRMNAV
pKi: −log10 of the molar value.
PROPERTY_MEASURED: pKi

>>> df
                                   compound  endpoint_result
0  COC(=O)C1C(OC(c2ccc(F)cc2)c2ccc(F)cc2)CC2CCC1N2C (racemic)             5.76
1  CN1C2CCC1C(C(=O)OCc1ccccc1)C(OC(c1ccc(F)cc1)c1ccc(F)cc1)C2 (racemic)             5.48
2  CCOC(=O)C1C(OC(c2ccc(F)cc2)c2ccc(F)cc2)CC2CCC1N2C (single isomer, unassigned; (+))             5.73
3  COC(=O)C1C(OC(c2ccc(F)cc2)c2ccc(F)cc2)CC2CCC1N2C (single isomer, unassigned; (+))             6.16
4  CC(C)OC(=O)C1C(OC(c2ccc(F)cc2)c2ccc(F)cc2)CC2CCC1N2C (racemic)             4.86
5  CC(C)OC(=O)C1C(OC(c2ccc(F)cc2)c2ccc(F)cc2)CC2CCC1N2C (single isomer, unassigned; (+))             4.92
6  CN1C2CCC1C(C(=O)OCc1ccccc1)C(OC(c1ccc(F)cc1)c1ccc(F)cc1)C2 (centres undefined)             5.69
7  CN1C2CCC1CC(OC(c1ccc(F)cc1)c1ccc(F)cc1)C2 (centres undefined)             5.49
8  CCOC(=O)C1C(OC(c2ccc(F)cc2)c2ccc(F)cc2)CC2CCC1N2C (racemic)             5.43
